# Tested on: RARa homodimer (NR concentration 270 nM)
# protocolSummary: PBM binding z-score (relative to random genomic background probes); higher = stronger binding; sequences stand for … in GC…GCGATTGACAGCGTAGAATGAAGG
assayEndpoint: PBM binding z-score

| seq | measurementTarget | observedResult |
| --- | --- | --- |
| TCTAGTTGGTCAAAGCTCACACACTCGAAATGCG | RARa homodimer (NR concentration 270 nM) | 0.56 |

Ask | # query: PBM binding z-score | item `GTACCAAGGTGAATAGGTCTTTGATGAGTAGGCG` | system: RARa homodimer (NR concentration 270 nM)
Reply | 0.436

Ask | # query: PBM binding z-score | item `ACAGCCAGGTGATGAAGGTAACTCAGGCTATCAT` | system: RARa homodimer (NR concentration 270 nM)
Reply | -0.504

Ask | # query: PBM binding z-score | item `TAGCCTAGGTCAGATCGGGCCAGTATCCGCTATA` | system: RARa homodimer (NR concentration 270 nM)
Reply | -1.32
